Origin of the recorded values: ChEMBL document CHEMBL5329178

Test system: Escherichia coli
Assay: Antibacterial activity against Escherichia coli assessed as growth inhibition at 32 ug/mL by whole cell growth inhibition assay relative to control
Type: functional
Settings: read-out: GI
readout.label: inhibition of growth at 32 µg/mL

Look up inhibition of growth at 32 µg/mL: CC(=O)/C(=C/c1ccc([N+](=O)[O-])cc1)C(N)=O
68.1%

Look up inhibition of growth at 32 µg/mL: CC(=O)/C(=C/c1ccccc1Cl)C(N)=O
66.8%

Look up inhibition of growth at 32 µg/mL: CC(=O)/C(=C/c1cccc([N+](=O)[O-])c1)C(N)=O
51.1%

Look up inhibition of growth at 32 µg/mL: CC(=O)/C(=C/c1ccccc1C#N)C(N)=O
52.1%

Look up inhibition of growth at 32 µg/mL: CCc1ccc(/C=C(/C(C)=O)C(N)=O)cc1[N+](=O)[O-]
25.5%

Look up inhibition of growth at 32 µg/mL: CC(=O)/C(=C/c1ccc(Br)cc1)C(N)=O
51.8%

Look up inhibition of growth at 32 µg/mL: CC(=O)/C(=C/c1ccccc1Br)C(N)=O
51.6%

Look up inhibition of growth at 32 µg/mL: CC(=O)/C(=C/c1ccccc1F)C(N)=O
59.7%

Look up inhibition of growth at 32 µg/mL: CC(=O)/C(=C/c1ccc(Cl)cc1)C(N)=O
67.8%

====

I'd be grateful if you could share measured viability at 64 ug/ml for these entries.
Test: Hemolytic activity in RBC (unknown origin) assessed as cell viability at 64 ug/ml relative to control
Assay type: toxicity, cell-based, Erythrocyte
Conditions: red blood cells (erythrocytes), at 64 µg/mL, read-out: Activity
State the answer as a number, implicitly in %.

Look up viability at 64 ug/ml: CC(=O)/C(=C/c1ccccc1C#N)C(N)=O
92.2

Look up viability at 64 ug/ml: CC(=O)/C(=C/c1cccc([N+](=O)[O-])c1)C(N)=O
96.4

Look up viability at 64 ug/ml: CC(=O)/C(=C/c1ccc(Br)cc1)C(N)=O
98.9

Look up viability at 64 ug/ml: CCc1ccc(/C=C(/C(C)=O)C(N)=O)cc1[N+](=O)[O-]
94.5

Look up viability at 64 ug/ml: CC(=O)/C(=C/c1ccccc1Br)C(N)=O
95.3

Look up viability at 64 ug/ml: CC(=O)/C(=C/c1ccc([N+](=O)[O-])cc1)C(N)=O
95.1

====

I'd be grateful if you could share measured viability at 64 ug/ml for these entries.
Assay: Cytotoxicity against human HEK293 cells assessed as cell viability at 64 ug/ml relative to control
Assay type: toxicity, cell-based
Details: at 64 µg/mL, read-out: Activity
Respond with a number, then the unit of measure.

Look up viability at 64 ug/ml: CC(=O)/C(=C/c1ccccc1C#N)C(N)=O
97.6%

Look up viability at 64 ug/ml: CCc1ccc(/C=C(/C(C)=O)C(N)=O)cc1[N+](=O)[O-]
88.9%

Look up viability at 64 ug/ml: CC(=O)/C(=C/c1ccc(Br)cc1)C(N)=O
94.8%

Look up viability at 64 ug/ml: CC(=O)/C(=C/c1cccc([N+](=O)[O-])c1)C(N)=O
93.8%

Look up viability at 64 ug/ml: CC(=O)/C(=C/c1ccc([N+](=O)[O-])cc1)C(N)=O
90.6%

Look up viability at 64 ug/ml: CC(=O)/C(=C/c1ccccc1Br)C(N)=O
90.2%
